# target: T1, Dimeric human CD48-mFc (human)
# T1 construct: the whole entry is the construct; also called hCD48-mFc
# T1 chain: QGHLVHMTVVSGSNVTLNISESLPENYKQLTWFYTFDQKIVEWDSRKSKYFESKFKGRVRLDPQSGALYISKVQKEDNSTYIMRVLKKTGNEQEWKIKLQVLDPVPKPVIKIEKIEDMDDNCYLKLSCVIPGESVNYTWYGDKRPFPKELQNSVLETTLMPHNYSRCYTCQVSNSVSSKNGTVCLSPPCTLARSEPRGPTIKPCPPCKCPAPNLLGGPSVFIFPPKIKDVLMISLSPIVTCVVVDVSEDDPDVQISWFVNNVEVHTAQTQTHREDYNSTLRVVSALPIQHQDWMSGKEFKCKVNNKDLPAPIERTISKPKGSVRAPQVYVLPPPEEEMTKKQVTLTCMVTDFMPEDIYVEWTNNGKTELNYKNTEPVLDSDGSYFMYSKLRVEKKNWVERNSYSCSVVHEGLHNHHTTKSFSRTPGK
# assay protocol: SPR (Biacore), antibody captured by anti-Fc, CD48 in solution, 37 C
property measured: kon (M⁻¹ s⁻¹)
Give bare numbers, in M⁻¹ s⁻¹.

Below are worked cases with known answers.
{"columns": ["binder", "property measured", "readout value"],
 "data": [
  ["H2M1707N (antibody, V domains shown, Human variable domains, mouse IgG2 Fc (H2M)) VH: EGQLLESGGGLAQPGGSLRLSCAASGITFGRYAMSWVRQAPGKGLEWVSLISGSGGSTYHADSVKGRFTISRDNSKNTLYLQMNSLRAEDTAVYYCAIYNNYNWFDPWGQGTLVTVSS VL: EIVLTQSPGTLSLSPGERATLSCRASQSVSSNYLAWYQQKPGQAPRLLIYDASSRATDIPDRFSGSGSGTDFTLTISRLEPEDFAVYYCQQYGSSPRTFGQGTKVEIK", "kon", 920000],
  ["H4H1779P (antibody, human IgG4, V domains shown, Human IgG4 Fc (H4H)) VH: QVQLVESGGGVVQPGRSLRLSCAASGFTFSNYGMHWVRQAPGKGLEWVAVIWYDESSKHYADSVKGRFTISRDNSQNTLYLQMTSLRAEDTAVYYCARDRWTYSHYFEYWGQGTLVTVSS VL: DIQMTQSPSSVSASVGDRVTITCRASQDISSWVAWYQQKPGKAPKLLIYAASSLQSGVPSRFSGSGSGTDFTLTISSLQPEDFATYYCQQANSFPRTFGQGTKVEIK", "kon", 772000],
  ["H4H1772P (antibody, human IgG4, V domains shown, Human IgG4 Fc (H4H)) VH: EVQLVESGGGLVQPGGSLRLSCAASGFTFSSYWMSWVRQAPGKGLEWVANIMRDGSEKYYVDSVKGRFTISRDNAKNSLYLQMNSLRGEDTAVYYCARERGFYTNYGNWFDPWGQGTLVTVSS VL: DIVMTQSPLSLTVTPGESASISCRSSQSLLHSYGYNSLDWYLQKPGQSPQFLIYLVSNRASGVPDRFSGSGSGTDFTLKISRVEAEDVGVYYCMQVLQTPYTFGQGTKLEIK", "kon", 920000]
]}

From here, focus on the item given below.
Query string: I have this binder here, H4H1771P (antibody, human IgG4, V domains shown, Human IgG4 Fc (H4H)) VH: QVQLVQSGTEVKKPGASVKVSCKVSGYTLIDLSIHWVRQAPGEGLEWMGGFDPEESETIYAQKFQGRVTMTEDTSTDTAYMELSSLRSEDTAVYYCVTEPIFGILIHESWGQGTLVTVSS VL: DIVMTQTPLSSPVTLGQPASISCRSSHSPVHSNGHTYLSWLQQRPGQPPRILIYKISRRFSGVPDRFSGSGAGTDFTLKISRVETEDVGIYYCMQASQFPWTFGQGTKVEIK , and I need its recorded kon.
Result string: 2.89e+06
